# testDescription: Tmax in golden Syrian hamster at 40 mg/kg, po by LC-MS/MS analysis
# Format: ADME, organism-based, Mesocricetus auratus
# conditionLabel: in vivo
Assignment: determine reported Tmax for the given compounds.
One number for each entry, in h.

* O=[N+]([O-])c1cn2c(n1)OC[C@H](OCc1ccc(-c3ccc(OC(F)(F)F)cc3F)nc1)C2 | 3.3
* O=[N+]([O-])c1cn2c(n1)OC[C@H](OCc1ccc(-c3ccc(OC(F)(F)F)cc3F)cn1)C2 | 2
* O=[N+]([O-])c1cn2c(n1)OC[C@H](OCc1ccc(-c3ccc(F)cc3F)cn1)C2 | 0.75

// next item, Tmax requested
Fill in Tmax for record O=[N+]([O-])c1cn2c(n1)OC[C@H](Oc1ccc(OC(F)(F)F)cc1)C2
3.3

###

Assignment: determine reported AUC(0-t) for the given compounds.
# testDescription: AUClast in golden Syrian hamster at 2 mg/kg, iv after 24 to 48 hrs by LC-MS/MS analysis
# Assay type: ADME, organism-based, Mesocricetus auratus
# conditionLabel: in vivo
Give bare numbers, in ng·h/mL.

* O=[N+]([O-])c1cn2c(n1)OC[C@H](OCc1ccc(-c3ccc(OC(F)(F)F)cc3F)cn1)C2 | 1890
* O=[N+]([O-])c1cn2c(n1)OC[C@H](OCc1ccc(-c3ccc(F)cc3F)cn1)C2 | 480
* O=[N+]([O-])c1cn2c(n1)OC[C@H](OCc1ccc(-c3ccc(OC(F)(F)F)cc3F)nc1)C2 | 3690

// batch mode: one AUC(0-t) value per listed entry
1. O=[N+]([O-])c1cn2c(n1)OC[C@H](OCc1ccc(-c3ccc(OC(F)(F)F)cc3)cn1)C2
2. O=[N+]([O-])c1cn2c(n1)OC[C@H](OCc1ccc(-c3ccc(F)cc3F)nc1)C2
3. O=[N+]([O-])c1cn2c(n1)OC[C@H](Oc1ccc(OC(F)(F)F)cc1)C2

[1300, 710, 420]

###

# Tested on: Syrian golden hamster
# testDescription: Oral bioavailability in golden Syrian hamster at 40 mg/kg by LC-MS/MS analysis
# Format: ADME, organism-based, Mesocricetus auratus
# conditionLabel: in vivo
experimentalReadout: F (%)
Numbers only, in %.

Answered examples (3):
- O=[N+]([O-])c1cn2c(n1)OC[C@H](OCc1ccc(-c3ccc(F)cc3F)cn1)C2: 37
- O=[N+]([O-])c1cn2c(n1)OC[C@H](OCc1ccc(-c3ccc(OC(F)(F)F)cc3)cn1)C2: 100
- O=[N+]([O-])c1cn2c(n1)OC[C@H](OCc1ccc(-c3ccc(OC(F)(F)F)cc3F)cn1)C2: 74

// next item, F requested
Fill in F for record O=[N+]([O-])c1cn2c(n1)OC[C@H](Oc1ccc(OC(F)(F)F)cc1)C2
100

###

Assignment: determine reported Cmax for the given compounds.
# testDescription: Cmax in golden Syrian hamster at 50 mg/kg, po by LC-MS/MS analysis
# Type: ADME, organism-based, Mesocricetus auratus
# Design: dose 50 mg/kg, route oral
# conditionLabel: in vivo
Numbers only, in ng/mL.

* O=[N+]([O-])c1cn2c(n1)OC[C@H](OCc1ccc(-c3ccc(F)cc3F)nc1)C2 | 1100

// next item, Cmax requested
Fill in Cmax for record O=[N+]([O-])c1cn2c(n1)OC[C@H](Oc1ccc(C(F)(F)F)cn1)C2
12000
